Target Desc: KRAS G12V (Homo sapiens (Human), UniProt P01116+P62937, G12V)
Sequence (P01116-2 other isoform, or with tags, fused parts or gaps G12V): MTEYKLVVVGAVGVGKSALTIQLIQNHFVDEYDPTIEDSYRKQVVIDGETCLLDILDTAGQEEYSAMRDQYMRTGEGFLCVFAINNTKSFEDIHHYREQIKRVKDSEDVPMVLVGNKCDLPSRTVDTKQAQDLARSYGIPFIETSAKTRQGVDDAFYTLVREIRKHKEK
Sequence (P62937 whole entry): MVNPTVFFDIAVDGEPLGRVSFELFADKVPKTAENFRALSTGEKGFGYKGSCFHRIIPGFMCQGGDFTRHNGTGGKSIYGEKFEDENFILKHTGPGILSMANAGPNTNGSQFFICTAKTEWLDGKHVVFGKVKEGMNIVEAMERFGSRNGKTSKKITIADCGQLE
Test Details: Ras-Raf (BRAF RBD) disruption / FRET / MOA assay, KRAS G12V
Type: biochemical
Measurement Setup: read-out: IC50* KRAS G12V FRET data
Quantity Name: IC50

[[record]]
compound = "C=CC(=O)N1CCN(C(=O)N(C)[C@H](C(=O)N[C@H]2Cc3cc(O)cc(c3)-c3ccc4c(c3)c(c(-c3ccccc3CCOC)n4CC)CC(C)(C)COC(=O)[C@@H]3CCCN(N3)C2=O)C(C)C)C[C@@H]1COC"
experimental_value = "1 to 10 µM"

[[record]]
compound = "C=CC(=O)N1C[C@H](C(=O)N(C)[C@H](C(=O)N[C@H]2Cc3cccc(c3)-c3ccc4c(c3)c(c(-c3cccnc3[C@H](C)OC)n4CC)CC(C)(C)COC(=O)[C@@H]3CCCN(N3)C2=O)C(C)C)[C@@H](C)C1 (atropisomer, axis not shown)"
experimental_value = "1 to 10 µM"

[[record]]
compound = "C=CC(=O)N(C)[C@H](C(=O)N[C@H]1Cc2cc(O)cc(c2)-c2ccc3c(c2)c(c(-c2cccnc2COC)n3CC)CC(C)(C)COC(=O)[C@@H]2CCCN(N2)C1=O)C(C)C"
experimental_value = "1 to 10 µM"

[[record]]
compound = "CCn1c(-c2cccnc2[C@H](C)OC)c2c3cc(ccc31)-c1cccc(c1)C[C@H](NC(=O)[C@H](C(C)C)N1CO[C@]3(CCN(C(=O)C#CC(C)(C)N4CCC4)C3)C1=O)C(=O)N1CCC[C@H](N1)C(=O)OCC(C)(C)C2 (atropisomer, axis not shown)"
experimental_value = "1 to 10 µM"

[[record]]
compound = "CCn1c(-c2cccnc2[C@H](C)OC)c2c3cc(ccc31)-c1csc(n1)C[C@H](NC(=O)[C@H](C(C)C)N1CC[C@]3(CCN(C(=O)C#CC(C)(C)N(C)C)C3)C1=O)C(=O)N1CCC[C@H](N1)C(=O)OCC(C)(C)C2 (atropisomer, axis not shown)"
experimental_value = "1 to 10 µM"

[[record]]
compound = "CCn1c(-c2cccnc2[C@H](C)OC)c2c3cc(ccc31)-c1cccc(c1)C[C@H](NC(=O)[C@H](C(C)C)N(C)C(=O)[C@H]1CCN(C(=O)C#CC(C)(C)N3CCC(F)(F)C3)C1)C(=O)N1CCC[C@H](N1)C(=O)OCC(C)(C)C2 (atropisomer, axis not shown)"
experimental_value = "1 to 10 µM"

[[record]]
compound = "C=CC(=O)N1CC[C@H](C(=O)N(C)[C@H](C(=O)N[C@H]2Cc3nc(cs3)-c3ccc4c(n3)c(c(-c3cccnc3[C@H](C)OC)n4CC)CC(C)(C)COC(=O)[C@@H]3CCCN(N3)C2=O)C(C)C)C1"
experimental_value = "> 10 µM"

[[record]]
compound = "C=CC(=O)N1CC[C@H](C(=O)N(C)[C@H](C(=O)N[C@H]2Cc3cccc(c3)-c3ccc4c(c3)c(c(-c3cc(CN(C)C)cnc3[C@H](C)OC)n4CC)CC(C)(C)COC(=O)[C@@H]3CCCN(N3)C2=O)C(C)C)C1 (atropisomer, axis not shown) [Example A522]"
experimental_value = "1 to 10 µM"

[[record]]
compound = "CC#CC(=O)N1CC[C@H](C(=O)N(C)[C@H](C(=O)N[C@H]2Cc3nc(cs3)-c3ccc4c(c3)c(c(-c3cccnc3[C@H](C)OC)n4CC)CC(C)(C)COC(=O)[C@@H]3CCCN(N3)C2=O)C2CCCC2)C1 (atropisomer, axis not shown)"
experimental_value = "1 to 10 µM"

[[record]]
compound = "CCn1c(-c2cccnc2[C@H](C)OC)c2c3cc(ccc31)-c1cccc(c1)C[C@H](NC(=O)[C@H](C(C)C)N1CC[C@]3(CCN(C(=O)C#CC(C)(C)N(C)C)C3)C1=O)C(=O)N1CCC[C@H](N1)C(=O)OCC(C)(C)C2 (atropisomer, axis not shown)"
experimental_value = "1 to 10 µM"

[[record]]
compound = "CO[C@@H](C)c1ncccc1-c1c2c3cc(ccc3n1CC(F)(F)F)-c1nc(co1)C[C@H](NC(=O)[C@H](C(C)C)N(C)C(=O)C1(F)CCN(C(=O)C#CC(C)(C)N(C)C)CC1)C(=O)N1CCC[C@H](N1)C(=O)OCC(C)(C)C2 (atropisomer, axis not shown)"
experimental_value = "0.1 to 1 µM"

[[record]]
compound = "C=CC(=O)N1CC[C@H](N(C)C(=O)N(C)[C@H](C(=O)N[C@H]2Cc3nc(cs3)-c3ccc4c(c3)c(c(-c3cccnc3[C@H](C)OC)n4CC)CC(C)(C)COC(=O)[C@@H]3CCCN(N3)C2=O)C(C)C)C1 (atropisomer, axis not shown)"
experimental_value = "0.1 to 1 µM"

[[record]]
compound = "CCn1c(-c2cccnc2[C@H](C)OC)c2c3cc(ccc31)N1CCC[C@@H](C[C@H](NC(=O)[C@H](C(C)C)N(C)C(=O)[C@H]3CCN(C(=O)C#CC(C)(C)N4CCC4)C3)C(=O)N3CCC[C@H](N3)C(=O)OCC(C)(C)C2)C1 (atropisomer, axis not shown)"
experimental_value = "> 10 µM"

[[record]]
compound = "C=CC(=O)N1CC[C@H](C(=O)N(C)[C@H](C(=O)N[C@H]2C[C@H]3CN(CCO3)c3ccc4c(c3)c(c(-c3cccnc3COC)n4CC)CC(C)(C)COC(=O)[C@@H]3CCCN(N3)C2=O)C(C)C)C1"
experimental_value = "> 10 µM"

[[record]]
compound = "C=CC(=O)N1CCO[C@@H]2CN(C(=O)N(C)[C@H](C(=O)N[C@H]3Cc4nc(cs4)-c4ccc5c(c4)c(c(-c4cccnc4[C@H](C)OC)n5CC)CC(C)(C)COC(=O)[C@@H]4CCCN(N4)C3=O)C(C)C)C[C@@H]21 (atropisomer, axis not shown)"
experimental_value = "0.1 to 1 µM"

